Assay: glass perforated plate rectification column, n-propanol from water
Assay type: physicochemical
Conditions: rectification column, overhead
# maps each entry to its Weight % n-Propanol, Overhead
Field: numeric (Weight %). Do not append units.

According to the records, this compound CCCCOC(C)=O [n-Butyl acetate] displays Weight % n-Propanol, Overhead of 72.3

---

Assay: glass perforated plate rectification column, n-propanol from water
Assay type: physicochemical
Details: rectification column, overhead
Structures can show the parent of a compound that is named as a salt.
OBSERVABLE: Weight % Water, Overhead (Weight %)
API: value field is a number in Weight %; no unit string.

Example cases with answers are listed next.
Lab note: CCCOCC(C)O (centres unmarked) [Propoxypropanol] gave Weight % Water, Overhead of 63.5

The recorded Weight % Water, Overhead for OCCCCCCO [1,6-Hexanediol] is 38.6

For this compound ( CCCCOC(C)=O [n-Butyl acetate] ), measured Weight % Water, Overhead is 27.7

Reported Weight % Water, Overhead for CC(=O)OCC(C)C [Isobutyl acetate] was 26.1

Now consider a different compound.
So for CCCCCOC=O [Amyl Formate] , the logged Weight % Water, Overhead turned out to be 40.3

---

Assay: vapor-liquid equilibrium still, n-propanol-water azeotrope with agent
Conditions: n-propanol from water, azeotropic distn.
# if value of Relative Volatility reaches 2, tag true; if it stays below, tag false

Hi, just wondering whether CC(=O)C=C(C)C [Mesityl oxide] shows Relative Volatility of 2 or higher.
false

***
Could you tell me if the measured Relative Volatility of CCCC(=O)OCC(C)C [Isobutyl butyrate] reaches 2 or more?
false

Would you say CC(=O)CC(C)C shows Relative Volatility at minimum 2?
false

Please indicate if the recorded Relative Volatility for N#Cc1ccccc1 meets or exceeds 2.
false

Please check the record CCCCCCOC(C)=O [Hexyl acetate] and state if its Relative Volatility is at or above 2.
true

Please tell me: is the compound CCCCCOC(C)=O [n-Amyl acetate] at or over 2 in terms of Relative Volatility?
false

Answer whether Relative Volatility of CCCCC(=O)CC is greater than or equal to 2.
true

Quick check: does CCCOC(=O)CCC [Propyl butyrate] have Relative Volatility greater than or equal to 2?
true

---

Assay: glass perforated plate rectification column, n-propanol from water
Assay type: physicochemical
Details: rectification column, bottoms
Where a name gives a salt, the structure may show the parent alone.
Strictly below 30 Weight % in Weight % n-Propanol, Bottoms: class 1. Otherwise: class 0.

Please determine if CC(=O)OCC(C)C [Isobutyl acetate] is below 30 Weight % in terms of Weight % n-Propanol, Bottoms.
class 0

Lab note: Weight % n-Propanol, Bottoms threshold 30 Weight %. Does this molecule come in strictly under it? OCCCCCCO [1,6-Hexanediol]
class 0

Confirm or reject: Weight % n-Propanol, Bottoms of CCCOCC(C)O (centres unmarked) [Propoxypropanol] lies strictly below 30 Weight %
class 0

Strictly below 30 Weight %: is that where Weight % n-Propanol, Bottoms of CCCCOC(C)=O [n-Butyl acetate] sits?
class 1

Criterion: Weight % n-Propanol, Bottoms strictly below 30 Weight %. Is it met by CCCCCOC=O [Amyl Formate] ?
class 1

---

Assay: vapor-liquid equilibrium still, isopropanol-water azeotrope with agent
Details: isopropanol from water, agent in vapor-liquid equilibrium still, water as overhead
OBSERVABLE: Relative Volatility
Form field (numeric): enter value without unit.

Field: example entries. Status: answers known.
For CCCCOC(=O)c1ccccc1 [Butyl benzoate] the compound record lists Relative Volatility as 1.36

# Relative Volatility of O=[N+]([O-])c1ccccc1 [Nitrobenzene] = 1.32

Recorded Relative Volatility (compound COCCO [Ethylene glycol methyl ether] ): 1.60

Reported Relative Volatility of CCCCCCOC(C)=O [Hexyl acetate] : 1.31

The compound listed as CC(=O)C=C(C)C [Mesityl oxide] has a reported Relative Volatility of 1.47

// Relative Volatility lookup, compound = CC(=O)CCC(C)C [Methyl isoamyl ketone] , result: 1.32

Continue with the next compound.
Kindly note the recorded Relative Volatility for CC(=O)C(C)C [3-Methyl-2-butanone] , which is 1.24

---

Test: vapor-liquid equilibrium still, n-propanol-water azeotrope with agent
Conditions: n-propanol from water, extractive distn., water as overhead
Below is a list of entries, each paired with its recorded Relative Volatility value.
No unit in the answer, only the number.

Below, 5 compounds whose answers are already recorded.
Relative Volatility measured on OCCCCCCO [1,6-Hexanediol] = 1.31

Quick note, Relative Volatility for OCCCCCO [1,5-Pentanediol] landed at 1.22

Lab book: Relative Volatility of OC1CCCCCCCCCCC1 [Cyclododecanol] noted as 1.43

GET /value?item= CC(O)c1ccccc1 (stereo not drawn) [alpha-Methyl benzyl alcohol] &field=Relative Volatility returns 1.48

Reported Relative Volatility for CCCCCC(C)=O [2-Heptanone] was 1.88

---
Quick note, Relative Volatility for O=[N+]([O-])c1ccccc1 [Nitrobenzene] landed at 1.21

Looking up CCCCCCCCCCCO [Undecyl alcohol] , I found its Relative Volatility recorded as 1.39

Documented Relative Volatility of COC(=O)c1ccccc1 [Methyl benzoate] : 1.70

# compound CCCCCCO [Hexyl alcohol] ; its Relative Volatility = 1.44

Entry CCOCCOC(C)=O [Ethylene glycol ethyl ether acetate] — recorded Relative Volatility = 1.37

---

Assay: glass perforated plate rectification column, n-propanol from water
Type: physicochemical
Settings: rectification column, bottoms
Structures can show the parent of a compound that is named as a salt.
# if measured Weight % Water, Bottoms < 30 Weight %: met  # else: not met

Could you please tell me whether Weight % Water, Bottoms recorded for CCCCOC(C)=O [n-Butyl acetate] is less than 30 Weight %?
not met

Say whether its Weight % Water, Bottoms is strictly beneath 30 Weight %. Entry: OCCCCCCO
met

Determine if CC(=O)OCC(C)C [Isobutyl acetate] shows Weight % Water, Bottoms strictly lower than 30 Weight %.
not met

Then this molecule:
Dear reviewer, please state whether CCCCCOC=O [Amyl Formate] has Weight % Water, Bottoms strictly beneath 30 Weight %.
met

---

Reported Relative Volatility values for a set of molecules
Test: vapor-liquid equilibrium still, isopropanol-water azeotrope with agent
Conditions: isopropanol from water, agent in vapor-liquid equilibrium still, water as overhead
Would you mind answering with just the numeric figure?

Use the examples below as a reference point.
Data point: CCCOC(=O)CCC [Propyl butyrate] ; Relative Volatility = 1.72

For reference, reported Relative Volatility for CC(C)COCC(C)O (centres unmarked) stands at 1.29

Given item CCCCCC(C)=O , the value recorded as its Relative Volatility is 1.32

Memo: CCCC(C)=O , reported Relative Volatility: 1.38

Kindly note the recorded Relative Volatility for COc1ccccc1 , which is 1.54

---
Per the records, this molecule ( CCCCCCO ) has Relative Volatility equal to 1.32

Just so you know, measured Relative Volatility for CCCCCOC(C)=O [n-Amyl acetate] came out at 1.30

Relative Volatility measured on OCCOCCO = 1.80

GET /value?item= CCC(C)O (centres unmarked) &field=Relative Volatility returns 1.36

Data point: CCC(=O)c1ccccc1 ; Relative Volatility = 1.31

Item: COC(=O)c1ccccc1 [Methyl benzoate] | Relative Volatility: 1.50

Reported Relative Volatility of CC(C)COC(=O)C(C)C [Isobutyl isobutyrate] : 1.61

# Relative Volatility (molecule: CCCC(=O)OCC [Ethyl butyrate] ) is 1.46

Form field Relative Volatility, entry CC(C)CCO : 1.54

---

Assay: glass perforated plate rectification column, n-propanol from water
Format: physicochemical
Settings: rectification column, overhead
Counter-ions that a name gives are not always drawn.
OBSERVABLE: Weight % n-Propanol, Overhead (Weight %)
# number only, unit Weight % dropped from output

Examples with answers:
Record OCCCCCCO [1,6-Hexanediol] . Reported Weight % n-Propanol, Overhead: 61.4

Kindly note the recorded Weight % n-Propanol, Overhead for CC(=O)OCC(C)C [Isobutyl acetate] , which is 73.9

Entry under test: CCCCCOC=O [Amyl Formate] . Its Weight % n-Propanol, Overhead was 29.9

In the following, a different compound is considered.
Data point: CCCOCC(C)O (stereo not shown) [Propoxypropanol] ; Weight % n-Propanol, Overhead = 36.5

---

Assay: vapor-liquid equilibrium still, isopropanol-water azeotrope with agent
Conditions: isopropanol from water, agent in vapor-liquid equilibrium still, water as overhead
Structures can show the parent of a compound that is named as a salt.
The molecules listed here are annotated with their Relative Volatility.
Please reply with the value in numeric form only.

Illustrative cases are given below, each with its answer.
The reported value for CCCCCC(=O)CC [3-Octanone] in terms of Relative Volatility is 1.22

# molecule CCCCOC(=O)CCC [Butyl butyrate] ; its Relative Volatility = 1.39

Relative Volatility reading for CCCCCCCCCCO [n-Decanol] : 1.38

The molecule listed as CCCCOC(C)=O [n-Butyl acetate] has a reported Relative Volatility of 1.28

The recorded Relative Volatility for CCCCCCOC=O [n-Hexyl formate] is 1.52

Entry OCCCCCO [1,5-Pentanediol] , Relative Volatility reported as 1.22

# Relative Volatility (molecule: CC(=O)CC(C)C [4-Methyl-2-pentanone] ) is 1.36

With those in mind, consider the next molecule.
Sample CCCCCCC(C)O (centres unmarked) [2-Octanol] ; Relative Volatility observed: 1.30
